Reported values: GI50 for NCI-H460 lung, one per item.

Previously resolved entries follow.
The reported NCI-H460 lung GI50 of COc1cc(-c2nc3ccccc3s2)ccc1OCc1nc2n(n1)S(=O)(=O)c1ccccc1N2C is > 100 µM

The observed GI50 for O=C(Nc1ccc(Br)c(Cl)c1)c1cc(F)ccc1O when tested with NCI-H460 lung stands at 0.675 µM

New cases:
Query C/C(=C\c1c[nH]c2ccccc12)[N+](=O)[O-] on NCI-H460 lung; GI50 returned: 4.18 µM

###

- Test system: SK-MEL-2 melanoma
- measurementDescription: NCI tumour cell line growth inhibition, 48 h
observedProperty: TGI

Example compounds with recorded TGI:
Lab note: measured TGI of Cc1ccccc1NC(=O)/C(C#N)=N\Nc1nc[nH]c1C(N)=O was > 100 µM

Note to self: TGI recorded for Nc1ccc(C(=O)NN2C(=O)C(Cl)C2c2ccccc2O)cc1 (centres undefined) was > 100 µM

For reference, reported TGI for COc1cc(CCCC(O)COc2cccc3c2C2(O)CCCCCC32)cc(OC)c1 (centres undefined) stands at 35.7 µM

Looking up O=c1[nH]c2ccsc2c(=O)n1COCc1ccccc1 , I see its TGI listed as > 100 µM

Please fill in: TGI reported for CN(C)CC1CCn2c(c(C3=C(c4cn(C)c5ccccc45)C(=O)NC3=O)c3ccccc32)C1 (centres undefined) = 7.82 µM

TGI in this record for CCO/C(O)=C(/C(=N)N1CCCC1)C(=O)Nc1ccc(Cl)cc1 : > 100 µM

Documented TGI of C[C@@H]1OC2(O)[C@@H]3CCCN3C(=O)N(Cc3ccccc3)N2C1=O (some centres undefined) : > 100 µM

The recorded TGI for Cc1ccc(S(=O)(=O)n2cc(C(=O)C(=O)Nc3ccncc3)c3ccccc32)cc1 is > 71.4 µM

---
Lookup result for Nc1nncs1 ; measured TGI: > 5000 µM

Consider CN1CCN(Cc2ccc(NC(=O)c3cncc(C#Cc4c(N)ncc5cc(F)ccc45)c3)cc2C(F)(F)F)CC1 . Its measured TGI is 6.14 µM

The compound listed as O=C(CCCN1CC=C(n2c(=O)[nH]c3ccccc32)CC1)c1cccs1 shows TGI equal to > 100 µM

TGI for COC(=O)C(=O)C(C(=O)C(=O)Nc1cc([N+](=O)[O-])ccc1[N+](=O)[O-])c1nc2ccc(C(=O)c3ccccc3)cc2[nH]c1=O (centres undefined) is > 100 µM

Record COc1ccc(C(CC(=O)c2ccccc2)C(=O)c2ccc3c(c2)OCO3)cc1 (centres undefined) . Reported TGI: > 100 µM

// O=C(/C=C\Sc1nccc(C(F)(F)F)n1)c1ccc(Br)cc1 : TGI value = > 100 µM

###

- Tested on: OVCAR-8 ovarian
- measurementDescription: NCI tumour cell line growth inhibition, 48 h
The molecules listed here are annotated with their TGI.

Note to self: TGI recorded for CC(=C(C(=O)O)C(=O)O)c1cc(-c2cccs2)cc(-c2ccc(Cl)cc2)c1O was 52.8 µM

Others:
Kindly note the recorded TGI for CC1=[N+]([O-])C(C)(C)N(O)C1(C)C , which is > 100 µM

# TGI of CSc1sc(=S)sc1SC = > 100 µM

So for O=C1c2cccnc2C(=O)c2c1nc1ccccc1c2-c1cncc(-c2c3c(nc4ccccc24)C(=O)c2cccnc2C3=O)c1 , the logged TGI turned out to be 0.618 µM

Entry O=C(CC1(O)C(=O)Nc2c(Cl)cc(Cl)cc21)c1ccc2ccccc2c1 (configuration not stated) — recorded TGI = 26 µM

Cc1c(CCl)c(=O)oc2c(C)c3occ(CCl)c(=O)c3cc12 yielded TGI of > 100 µM

The molecule identified as ON(CCc1ccccn1)Cc1ccccc1 registered its TGI at > 100 µM

Form: molecule = O=C1c2ccccc2C(=O)c2c(O)c(O)cc(O)c21 ; TGI = > 100 µM

In plain terms, O=C(O)CCSc1nnc(COc2ccc(Cl)cc2)n1-c1ccccc1 has a documented TGI of > 100 µM
